- target.entity: G12D-mutant human KRAS (amino acid residues 1-188) (Homo sapiens, UniProt P01116, G12D)
- Construct: G12D or G12C-mutant human KRAS (amino acid residues 1-188) with FLAG tag; made in house; host or cells: E. coli
- Sequence (P01116 1-188 isoform P01116-2 G12D): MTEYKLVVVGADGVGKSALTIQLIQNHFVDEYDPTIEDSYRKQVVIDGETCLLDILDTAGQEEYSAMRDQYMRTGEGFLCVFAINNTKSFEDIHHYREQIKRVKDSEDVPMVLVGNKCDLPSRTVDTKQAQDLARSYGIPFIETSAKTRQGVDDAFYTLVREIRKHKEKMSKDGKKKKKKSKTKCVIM
- test.summary: KRAS Binding Disruption Assay (AlphaScreen; biotinylated KRpep-2d analogue or RAF1-RBD), G12D
- condition.notes: KRAS G12D; geometric mean; read-out: KRAS GMean IC50 (uM) MUTATION: G12D
Below is a list of entries, each paired with its recorded IC50 value.

Worked set:
compound: Oc1cc(-c2ccc3c(N4C[C@H]5CC[C@@H](C4)N5)nc(CCNc4ncccn4)nc3c2F)c2ccccc2c1 [P-0769]
target.entity: G12D-mutant human KRAS (amino acid residues 1-188) (Homo sapiens, UniProt P01116, G12D)
IC50: 0.0001 to 10 µM
--
compound: Oc1cc(-c2ccc3c(N4C[C@H]5CC[C@@H](C4)N5)nc(OC[C@@H]4CCCN4)nc3c2F)c2ccccc2c1 [P-0714]
target.entity: G12D-mutant human KRAS (amino acid residues 1-188) (Homo sapiens, UniProt P01116, G12D)
IC50: 0.0001 to 10 µM
--
compound: FC(F)(F)c1cccc2[nH]cc(-c3ccc4c(N5C[C@H]6CC[C@@H](C5)N6)nc(OCC56CCCN5CCC6)nc4c3)c12 [P-0711]
target.entity: G12D-mutant human KRAS (amino acid residues 1-188) (Homo sapiens, UniProt P01116, G12D)
IC50: 0.0001 to 10 µM
--
compound: CN1CCc2cccc(Oc3nc(N4C[C@H]5CC[C@@H](C4)N5)c4ccc(-c5c(O)cccc5F)c(F)c4n3)c2C1 [P-0332]
target.entity: G12D-mutant human KRAS (amino acid residues 1-188) (Homo sapiens, UniProt P01116, G12D)
IC50: 10 to 100 µM
--
compound: CC(C)(CNC(=O)CO)COc1nc(N2C[C@H]3CC[C@@H](C2)N3)c2ccc(-c3cc(O)cc4ccccc34)c(F)c2n1 [P-0537]
target.entity: G12D-mutant human KRAS (amino acid residues 1-188) (Homo sapiens, UniProt P01116, G12D)
IC50: 0.0001 to 10 µM

Which measured IC50 value corresponds to Fc1cc2c(N3C[C@H]4CC[C@@H](C3)N4)nc(OCC34CCCN3CCC4)nc2c(F)c1-c1c[nH]c2ccc(Cl)c(Cl)c12 [P-0774] ?
0.0001 to 10 µM

Which measured IC50 value corresponds to CCCc1nc(N2C[C@H]3CC[C@@H](C2)N3)c2ccc(-c3cc(O)cc4ccccc34)c(F)c2n1 [P-0455] ?
0.0001 to 10 µM

Which measured IC50 value corresponds to CN1CCC[C@H]1COc1nc(N2C[C@H]3CC[C@@H](C2)N3)c2ccc(Nc3n[nH]c4c(F)cccc34)c(F)c2n1 [P-0438] ?
10 to 100 µM

Which measured IC50 value corresponds to CC(CO)(CO)COc1nc(N2C[C@H]3CC[C@@H](C2)N3)c2ccc(-c3cc(O)cc4ccccc34)c(F)c2n1 [P-0525] ?
0.0001 to 10 µM

###

- target.entity: G12D-mutant human KRAS (amino acid residues 1-188) (Homo sapiens, UniProt P01116, G12D)
- Construct: G12D or G12C-mutant human KRAS (amino acid residues 1-188) with FLAG tag; made in house; host or cells: E. coli
- test.summary: KRAS Binding Disruption Assay (AlphaScreen; biotinylated KRpep-2d analogue or RAF1-RBD), G12D
- condition.notes: KRAS G12D; geometric mean; read-out: KRAS GMean IC50 (uM) MUTATION: G12D
reported.metric: IC50

Worked set:
compound: CC(C)(COc1nc(N2C[C@H]3CC[C@@H](C2)N3)c2ccc(-c3cc(O)cc4ccccc34)c(F)c2n1)C(N)=O [P-0620]
target.entity: G12D-mutant human KRAS (amino acid residues 1-188) (Homo sapiens, UniProt P01116, G12D)
result.value: 0.0001 to 10 µM

compound: CN1CCC[C@H]1COc1nc(N2C[C@H]3CC[C@@H](C2)N3)c2ccc(-n3nc(O)c4cccc(F)c43)c(F)c2n1 [P-0458]
target.entity: G12D-mutant human KRAS (amino acid residues 1-188) (Homo sapiens, UniProt P01116, G12D)
result.value: 10 to 100 µM

compound: C[C@H](O)C(=O)N1C[C@H]2CC[C@@H](C1)N2c1nc(OC[C@@H]2CCCN2C)nc2cc(-c3cc(O)cc4ccccc34)ccc12 [P-0221]
target.entity: G12D-mutant human KRAS (amino acid residues 1-188) (Homo sapiens, UniProt P01116, G12D)
result.value: 10 to 100 µM

compound: CN1CCC[C@H]1COc1nc(N2CC3CCCC2CN3C(=O)NC2CCOC2)c2ccc(-c3cc(O)cc4ccccc34)c(F)c2n1 (some centres unmarked) [P-0298]
target.entity: G12D-mutant human KRAS (amino acid residues 1-188) (Homo sapiens, UniProt P01116, G12D)
result.value: 0.0001 to 10 µM

compound: CN1CCC[C@H]1COc1nc(N2C[C@H]3CC[C@@H](C2)N3C(=O)CC(N)=O)c2cc(Cl)c(-c3cc(O)cc4ccccc34)c(F)c2n1 [P-0451]
target.entity: G12D-mutant human KRAS (amino acid residues 1-188) (Homo sapiens, UniProt P01116, G12D)
result.value: 0.0001 to 10 µM

Which measured IC50 value corresponds to Fc1cc(F)c2c(-c3c(F)cc4c(N5C[C@H]6CC[C@@H](C5)N6)nc(OCC56CCCN5CCC6)nc4c3F)c[nH]c2c1 [P-0806] ?
0.0001 to 10 µM

Which measured IC50 value corresponds to CN1CCC[C@H]1COc1nc(N2C[C@H]3CC[C@@H](C2)N3C(=O)CCC#N)c2ccc(-c3cc(O)cc4ccccc34)cc2n1 [P-0383] ?
10 to 100 µM

Which measured IC50 value corresponds to CN1CCC(Cc2nc(N3[C@@H]4CC[C@H]3CNC4)c3ccc(-c4cc(O)cc5ccccc45)cc3n2)CC1 [P-0201] ?
0.0001 to 10 µM

Which measured IC50 value corresponds to Oc1cc(-c2ccc3c(N4C[C@H]5CC[C@@H](C4)N5)nc(N4CC(N5CC(O)C5)C4)nc3c2F)c2ccccc2c1 [P-0632] ?
0.0001 to 10 µM

Which measured IC50 value corresponds to CN1CCC[C@H]1COc1nc(N2[C@@H]3CC[C@H]2CN(C(=O)NCc2ccccn2)C3)c2ccc(-c3cc(O)cc4ccccc34)cc2n1 [P-0216] ?
10 to 100 µM

Which measured IC50 value corresponds to CN1CCC[C@H]1COc1nc(N2C[C@H]3CC[C@@H](C2)N3)c2ccc(-c3c[nH]c4ccc(C#N)cc34)c(F)c2n1 [P-0313] ?
10 to 100 µM

Which measured IC50 value corresponds to CN1CCC[C@H]1COc1nc(N2[C@@H]3CC[C@H]2CN(C2CNC2)C3)c2ccc(-c3cc(O)cc4ccccc34)cc2n1 [P-0226] ?
100 to 1000 µM

Which measured IC50 value corresponds to CC(=O)NCCOc1nc(N2C[C@H]3CC[C@@H](C2)N3)c2ccc(-c3cc(O)cc4ccccc34)c(F)c2n1 [P-0692] ?
0.0001 to 10 µM

Which measured IC50 value corresponds to CN1CCc2c(cccc2Oc2nc(N3C[C@H]4CC[C@@H](C3)N4)c3ccc(-c4cc(O)cc5ccccc45)c(F)c3n2)C1 [P-0623] ?
0.0001 to 10 µM

###

- target.entity: G12C-mutant human KRAS (amino acid residues 1-188) (Homo sapiens, UniProt P01116, G12C)
- Construct: G12D or G12C-mutant human KRAS (amino acid residues 1-188) with FLAG tag; made in house; host or cells: E. coli
- Sequence (P01116 1-188 isoform P01116-2 G12C): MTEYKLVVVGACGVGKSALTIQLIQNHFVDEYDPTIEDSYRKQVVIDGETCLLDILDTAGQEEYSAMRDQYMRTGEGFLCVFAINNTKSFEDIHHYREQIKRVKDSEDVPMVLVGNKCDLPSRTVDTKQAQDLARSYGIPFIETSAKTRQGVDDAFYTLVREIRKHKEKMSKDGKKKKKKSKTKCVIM
- test.summary: KRAS Binding Disruption Assay (AlphaScreen; biotinylated KRpep-2d analogue or RAF1-RBD), G12C
- condition.notes: geometric mean, read-out: KRAS GMean IC50 (uM) MUTATION: G12C
reported.metric: IC50

Worked set:
molecule: Oc1cc(-c2ccc3c(N4C[C@H]5CC[C@@H](C4)N5)nc(N4CC5(CCCN5)C4)nc3c2F)c2ccccc2c1
result.value: 10 to 100 µM
--
molecule: O=C(NC1CCNCC1)N1[C@@H]2CC[C@H]1CN(c1nc(OCC34CCCN3CCC4)nc3cc(-c4cc(O)cc5ccccc45)ccc13)C2
result.value: 0.0001 to 10 µM
--
molecule: Oc1cc(-c2ccc3c(N4C[C@H]5CC[C@@H](C4)N5)nc(OCCN4CCCC4)nc3c2F)c2ccccc2c1
result.value: 10 to 100 µM

Read the next record carefully.
Which measured IC50 value corresponds to CCC(=O)N1[C@@H]2CC[C@H]1CN(c1nc(OCC34CCCN3CCC4)nc3cc(-c4cc(O)cc5ccccc45)ccc13)C2 ?
0.0001 to 10 µM

The measured values listed here are drawn from patent US20230081426A1.
